test system: ATP; assay: switch fluorescence ratio, 500 uM ATP over buffer (Cy3 cluster intensity, sum of 5 cycles each) (fold (ratio)); higher = stronger signal-on switching upon ATP binding; sequences stand for … in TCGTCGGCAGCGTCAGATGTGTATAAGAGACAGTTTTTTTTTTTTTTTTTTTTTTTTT…TC; details: aptamer strand: ATP DNA aptamer (quencher-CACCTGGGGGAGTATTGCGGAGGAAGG + anchor), 100 nM annealed; ATP concentration: 500 uM;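 further: ATP exposure 15 min at 22 °C before imaging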
So basically: switch fluorescence ratio at 1 or higher? That is true (1). Lower than 1? That is false (0).

Examples from the recorded data:
| Biopolymer sequence | Class assignment |
| --- | --- |
| TGCCCGAGCT | true (1) |
| ATTACCTGTT | true (1) |

Hello, I need to know if ACAGAAGCTT has measured switch fluorescence ratio not below 1. Thanks! true (1)

Is the recorded value of switch fluorescence ratio equal to or greater than 1 for this sequence? TTTAGCGACG true (1)

Please check the record TTTGGGCATA and state if its switch fluorescence ratio is at or above 1. true (1)

I'd appreciate it if you could say whether ACTTTTACAT has switch fluorescence ratio at least equal to 1. true (1)

Assess whether reported switch fluorescence ratio for GATTTAGACT sits at 1 or higher. true (1)

Check the entry CCTCATCGAG : does switch fluorescence ratio equal or exceed 1? true (1)

Has GAGCGGGGGA a recorded switch fluorescence ratio greater than or equal to 1? true (1)

Check this sequence for switch fluorescence ratio at or above 1: GGGGATGTTT false (0)

----------
test system: ATP; assay: switch fluorescence ratio, 500 uM ATP over buffer (Cy3 cluster intensity, sum of 5 cycles each) (fold (ratio)); higher = stronger signal-on switching upon ATP binding; sequences stand for … in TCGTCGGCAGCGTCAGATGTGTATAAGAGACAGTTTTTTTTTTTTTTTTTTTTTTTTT…TC; conditions: aptamer strand: ATP DNA aptamer (quencher-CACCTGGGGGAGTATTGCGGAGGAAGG + anchor), 100 nM annealed; ATP concentration: 500 uM;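 further: ATP exposure 15 min at 22 °C before imaging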
Catalogue of switch fluorescence ratio readings, one per entry.

Sample records with switch fluorescence ratio:
| Biopolymer sequence | switch fluorescence ratio |
| --- | --- |
| TGTAAATAAG | 0.991 |
| CCATTTTTAC | 1.1 |
| AAGTCCTTCT | 1.07 |
| GAGTTGGGGG | 1.02 |
| ATGGAAAAGC | 1 |
| AGACTCGCCC | 1.12 |

Report switch fluorescence ratio for ACCCGAGGGA 1.05

Tell me switch fluorescence ratio reported for ACGATAGGCC 1.03

For the sequence AATTCGACGT , give its measured switch fluorescence ratio value. 0.996

Supply measured switch fluorescence ratio of ATGTAATTTC in your reply. 0.999

Answer with the recorded switch fluorescence ratio of GGGAACGGTA only. 0.995

For the sequence TTTCAGACAT , give its measured switch fluorescence ratio value. 1.02

Using known records, supply switch fluorescence ratio for TAACGGAGAC 1.35

----------
test system: ATP; test: switch fluorescence ratio, 500 uM ATP over buffer (Cy3 cluster intensity, sum of 5 cycles each) (fold (ratio)); higher = stronger signal-on switching upon ATP binding; sequences stand for … in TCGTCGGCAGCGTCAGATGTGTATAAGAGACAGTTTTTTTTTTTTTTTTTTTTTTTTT…TC; settings: aptamer strand: ATP DNA aptamer (quencher-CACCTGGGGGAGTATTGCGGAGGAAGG + anchor), 100 nM annealed; ATP concentration: 500 uM;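 further: ATP exposure 15 min at 22 °C before imaging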
Assign Y whenever switch fluorescence ratio does not fall below 1; assign N whenever it does.

Check this sequence for switch fluorescence ratio at or above 1: ATCATCCGTT Y

For this sequence, is measured switch fluorescence ratio 1 or higher? TTAGGTGAGT Y

Hi, just wondering whether TAAACCTAGC shows switch fluorescence ratio of 1 or higher. Y

Hello, I need to know if ACTTTGGAGA has measured switch fluorescence ratio not below 1. Thanks! Y
